src = patent US11858905B1

Biological target: human CatL (Homo sapiens (Human), UniProt P07711)
Sequence (P07711 whole entry, looked up): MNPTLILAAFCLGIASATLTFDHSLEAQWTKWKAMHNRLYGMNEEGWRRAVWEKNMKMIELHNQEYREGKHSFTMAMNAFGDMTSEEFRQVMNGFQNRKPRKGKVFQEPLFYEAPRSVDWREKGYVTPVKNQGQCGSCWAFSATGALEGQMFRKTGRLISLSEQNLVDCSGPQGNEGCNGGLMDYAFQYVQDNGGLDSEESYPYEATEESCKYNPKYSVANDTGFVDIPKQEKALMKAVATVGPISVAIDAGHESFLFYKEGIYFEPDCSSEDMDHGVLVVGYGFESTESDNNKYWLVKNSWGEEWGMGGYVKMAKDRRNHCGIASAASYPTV
Experiment: Human Cathepsin L (CatL) enzymatic assay
Format: biochemical
Details: CatL 0.05 nM, substrate 500 nM, pH 5.5; read-out: Enzymatic inhibition IC50
Give measured log10(IC50) for each item. Keep answers brief.
Annotation: log10 of IC50, nM basis.

Guide cases for log10(IC50), answers given:
- Entry Smiles: "N#CC1(NC(=O)[C@H](Cc2nc3cccc(Br)c3o2)NC(=O)c2cccc(Cl)c2)CC1"
  log10(IC50): 0.77
- Entry Smiles: "N#CC1(NC(=O)[C@H](Cc2nc3ccccc3o2)NC(=O)c2cn(C3CC3)nc2C(F)F)CC1"
  log10(IC50): 1.65
- Entry Smiles: "Cn1nc(C(C)(C)C)cc1C(=O)N[C@@H](Cc1nc2ccccc2o1)C(=O)NC1(C#N)CC1"
  log10(IC50): 0.59
- Entry Smiles: "CC1(c2cc(C(=O)N[C@@H](Cc3nc4ccc(C5=CCN(CC(F)F)CC5)cc4o3)C(=O)NC3(C#N)CC3)n(C3CC3)n2)CC1"
  log10(IC50): 0.18
- Entry Smiles: "CC(C)(C)c1cc(C(=O)N[C@@H](Cc2nc3cc(F)cc(Cl)c3o2)C(=O)NC2(C#N)CC2)n(C2CC2)n1"
  log10(IC50): 0.91

Provide each entry's log10(IC50) from the list below.
1. Cc1nn(C2CC2)cc1C(=O)N[C@@H](Cc1nc2cc(F)c(F)cc2o1)C(=O)NC1(C#N)CC1
2. CC(C)(C)c1cc(C(=O)N[C@@H](Cc2nc3ccc(Br)cc3o2)C(=O)NC2(C#N)CC2)n(C2CC2)n1
3. N#CC1(NC(=O)[C@H](Cc2nc3c(Br)cccc3o2)NC(=O)c2cccc(Cl)c2)CC1
4. Cc1cc(-c2ccc3nc(C[C@H](NC(=O)c4cc(C5(C)CC5)nn4C4CC4)C(=O)NCC#N)oc3c2)ccn1

[2.30, 0.46, 0.88, 0.04]
